System: COLO 205
Assay: Cytotoxicity against human COLO205 cells
Type: functional, cell-based
Quantity Name: IC50 (µM)

{"columns": ["Chemical String", "Bound Operator", "Measured Result"],
 "data": [
  ["COc1cccc(Cn2nc(Nc3cc(C)[nH]n3)c3ccccc3c2=O)c1", "=", 3.6],
  ["CC(=O)Nc1ccc(Cn2nc(Nc3cc(C)[nH]n3)c3ccccc3c2=O)cc1", ">", 30],
  ["COc1ccc(-n2nc(Nc3cc(C)[nH]n3)c3ccccc3c2=O)cc1", "=", 3.7],
  ["Cc1cc(Nc2nn(Cc3ccncc3)c(=O)c3ccccc23)n[nH]1", "=", 13],
  ["Cc1cc(Nc2nn(Cc3cc(F)cc(F)c3)c(=O)c3ccccc23)n[nH]1", "=", 2.3],
  ["Cc1cc(Nc2nn(-c3ccc(F)cc3)c(=O)c3ccccc23)n[nH]1", "=", 1.6],
  ["COc1cccc(C(=O)Cn2nc(Nc3cc(C)[nH]n3)c3ccccc3c2=O)c1", ">", 30],
  ["COc1ccc(Cn2nc(Nc3cc(C)[nH]n3)c3ccccc3c2=O)cc1", "=", 4.2],
  ["Cc1cccc(-n2nc(Nc3cc(C)[nH]n3)c3ccccc3c2=O)c1", "=", 3.2],
  ["Cc1cc(Nc2nn(C)c(=O)c3ccccc23)n[nH]1", ">", 30],
  ["Cc1cc(Nc2nn(CC(=O)c3ccc(C(F)(F)F)cc3)c(=O)c3ccccc23)n[nH]1", ">", 30],
  ["Cc1cc(Nc2nn(Cc3cccnc3)c(=O)c3ccccc23)n[nH]1", "=", 4.1],
  ["COc1ccc(C(=O)Cn2nc(Nc3cc(C)[nH]n3)c3ccccc3c2=O)cc1", ">", 30],
  ["Cc1cc(Nc2nn(Cc3ccccc3)c(=O)c3ccccc23)n[nH]1", "=", 4.4],
  ["Cc1cc(Nc2nn(Cc3ccc(F)cc3)c(=O)c3ccccc23)n[nH]1", "=", 17],
  ["Cc1cc(Nc2nn(Cc3csc(C)n3)c(=O)c3ccccc23)n[nH]1", ">", 30],
  ["Cc1cc(Nc2nn(CC(=O)c3ccccc3)c(=O)c3ccccc23)n[nH]1", ">", 30],
  ["Cc1cc(Nc2nn(Cc3ccc(S(C)(=O)=O)cc3)c(=O)c3ccccc23)n[nH]1", "=", 4.5],
  ["Cc1ccc(-n2nc(Nc3cc(C)[nH]n3)c3ccccc3c2=O)cc1", "=", 3.6],
  ["Cc1cc(Nc2nn(C(C)C)c(=O)c3ccccc23)n[nH]1", "=", 1.7],
  ["Cc1cc(Nc2nn(-c3ccc(Cl)cc3)c(=O)c3ccccc23)n[nH]1", "=", 2.2],
  ["Cc1cc(Nc2nn(Cc3cc(F)ccc3F)c(=O)c3ccccc23)n[nH]1", "=", 3.8]
]}

====

The following compounds are listed with their measured pIC50 values.
Sequence of the target: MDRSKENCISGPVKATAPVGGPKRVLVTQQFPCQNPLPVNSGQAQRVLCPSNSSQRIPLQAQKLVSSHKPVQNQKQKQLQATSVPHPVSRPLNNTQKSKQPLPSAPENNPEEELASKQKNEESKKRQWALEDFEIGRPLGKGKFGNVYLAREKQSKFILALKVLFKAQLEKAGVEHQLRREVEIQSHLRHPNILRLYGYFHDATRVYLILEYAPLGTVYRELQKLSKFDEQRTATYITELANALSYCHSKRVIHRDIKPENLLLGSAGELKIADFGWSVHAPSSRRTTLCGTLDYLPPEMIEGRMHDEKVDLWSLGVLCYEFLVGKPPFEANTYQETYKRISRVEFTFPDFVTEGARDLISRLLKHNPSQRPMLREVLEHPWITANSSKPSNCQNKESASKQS
pIC50: −log10 of the molar value.
Quantity Name: pIC50

{"columns": ["Chemical String", "Quantity Name", "Measured Result"],
 "data": [
  ["COc1cccc(C(=O)Cn2nc(Nc3cc(C)[nH]n3)c3ccccc3c2=O)c1", "pIC50", 7.00],
  ["Cc1cc(Nc2nn(Cc3cc(F)cc(F)c3)c(=O)c3ccccc23)n[nH]1", "pIC50", 7.31],
  ["COc1ccc(Cn2nc(Nc3cc(C)[nH]n3)c3ccccc3c2=O)cc1", "pIC50", 7.49],
  ["COc1cccc(Cn2nc(Nc3cc(C)[nH]n3)c3ccccc3c2=O)c1", "pIC50", 7.44],
  ["Cc1cc(Nc2nn(CC(=O)c3ccccc3)c(=O)c3ccccc23)n[nH]1", "pIC50", 7.15],
  ["Cc1cc(Nc2nn(CC(F)(F)F)c(=O)c3ccccc23)n[nH]1", "pIC50", 7.18],
  ["Cc1cc(Nc2nn(Cc3ccc(F)cc3)c(=O)c3ccccc23)n[nH]1", "pIC50", 7.85],
  ["Cc1cc(Nc2nn(Cc3ccc(S(C)(=O)=O)cc3)c(=O)c3ccccc23)n[nH]1", "pIC50", 7.25]
]}

====

IC50 values recorded for Aurora kinase B (Homo sapiens, UniProt Q96GD4)

{"columns": ["Chemical String", "Tested Target", "IC50"],
 "data": [
  ["Cc1ccc(-n2nc(Nc3cc(C)[nH]n3)c3ccccc3c2=O)cc1", "Aurora kinase B (Homo sapiens, UniProt Q96GD4)", "> 100 µM"],
  ["COc1ccc(C(=O)Cn2nc(Nc3cc(C)[nH]n3)c3ccccc3c2=O)cc1", "Aurora kinase B (Homo sapiens, UniProt Q96GD4)", "> 100 µM"],
  ["Cc1cc(Nc2nn(-c3ccc(F)cc3)c(=O)c3ccccc23)n[nH]1", "Aurora kinase B (Homo sapiens, UniProt Q96GD4)", "> 100 µM"],
  ["Cc1cc(Nc2nn(Cc3cc(F)cc(F)c3)c(=O)c3ccccc23)n[nH]1", "Aurora kinase B (Homo sapiens, UniProt Q96GD4)", "> 100 µM"],
  ["Cc1cc(Nc2nn(CC(=O)c3ccc(C(F)(F)F)cc3)c(=O)c3ccccc23)n[nH]1", "Aurora kinase B (Homo sapiens, UniProt Q96GD4)", "> 100 µM"],
  ["Cc1cc(Nc2nn(-c3ccc(C(C)(C)C)cc3)c(=O)c3ccccc23)n[nH]1", "Aurora kinase B (Homo sapiens, UniProt Q96GD4)", "> 50 µM"]
]}
